- TARGET_SYSTEM: Peroxisome proliferator-activated receptor gamma (Homo sapiens)
- Sequence (P37231 whole entry, the tested form may be a part): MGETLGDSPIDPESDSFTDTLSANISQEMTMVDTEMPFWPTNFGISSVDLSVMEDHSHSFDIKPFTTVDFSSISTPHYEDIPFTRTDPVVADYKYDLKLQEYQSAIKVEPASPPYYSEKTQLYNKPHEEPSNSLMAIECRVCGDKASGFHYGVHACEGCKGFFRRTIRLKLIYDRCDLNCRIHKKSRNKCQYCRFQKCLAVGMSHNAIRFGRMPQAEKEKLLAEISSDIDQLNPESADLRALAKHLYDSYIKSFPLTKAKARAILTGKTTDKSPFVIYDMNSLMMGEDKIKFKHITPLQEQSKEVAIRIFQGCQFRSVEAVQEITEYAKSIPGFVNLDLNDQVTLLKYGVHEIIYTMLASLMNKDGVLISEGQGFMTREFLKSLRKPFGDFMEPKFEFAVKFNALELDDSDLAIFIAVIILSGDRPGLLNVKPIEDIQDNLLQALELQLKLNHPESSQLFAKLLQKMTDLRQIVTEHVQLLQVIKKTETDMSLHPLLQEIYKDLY
- ASSAY_COMMENT: Agonist activity at recombinant human PPARgamma LBD (205 to 505 residues) expressed in African green monkey COS-1 cells incubated for 18 hrs by luciferase reporter gene assay
pEC50: −log10 of the molar value.
MEASUREMENT_NAME: pEC50

[[record]]
chem_smiles = "CCCCCCCC(=O)/C=C/CCCCCC(=O)O"
recorded_number = 5.00

[[record]]
chem_smiles = "CCCCC/C=C/C(=O)CCCCCCCC(=O)O"
recorded_number = 5.07


----------
- ASSAY_COMMENT: Cytotoxicity against African green monkey COS-1 cells assessed as cell viability at EC50 concentration for PPAR activation assay by XTT assay
- Type: cell-based
- CONDITION_PARAMETERS: chlorocebus aethiops, read-out: Activity
MEASUREMENT_NAME: viability

[[record]]
compound = "Cc1cccc(Nc2cc(Cl)nc(SCC(=O)O)n2)c1C"
result = "> 95%"

[[record]]
compound = "CCCCCCCCCCCCCCCC(=O)O"
result = "> 90%"

[[record]]
compound = "CN(CCOc1ccc(CC2SC(=O)NC2=O)cc1)c1ccccn1 (stereo not given)"
result = "> 95%"

[[record]]
compound = "CCCCC/C=C/C(=O)CCCCCCCC(=O)O"
result = "> 90%"

[[record]]
compound = "CCCCCCCC(=O)/C=C/CCCCCC(=O)O"
result = "> 90%"

